Tested on: HOP-62 NSCLC
Assay: NCI tumour cell line growth inhibition, 48 h
The entries below are paired with their reported TGI.
Record the value in µM, omitting the unit from your answer.

CC(=O)O[C@H]1C[C@H]2[C@@H]([C@H](OC(C)=O)C[C@@H]3CC4(CC[C@@]32C)OOC2(CCCCC2)OO4)[C@@H]2CC[C@H]([C@H](C)CCC(=O)O)[C@@]12C
5.93
Nc1n[nH]c2ccc([C@@H]3Nc4c(F)cc5[nH]ncc5c4[C@H]4C5CCC(C5)[C@@H]34)cc12 (stereo partly specified)
38.5

Here's the next entry for you.
Prompt: // returns reported TGI for input "COc1ncc2cc1NS(=O)(=O)c1cccc(c1)C(=O)NCC1=CC=C(S1)c1ncnc3c1SC2=C3C"
Completion: 4.1

* * *

# maps each entry to its TGI
Tested on: UO-31 renal
Experiment: NCI tumour cell line growth inhibition, 48 h
The figure you give is taken to be in µM; do not add the unit.

Prompt: Look up TGI for this compound: "N#Cc1c(N)nc2n[nH]c(N)c2c1-c1ccccc1"
Completion: 32.3

Prompt: Reported TGI for "Cc1ccccc1CNc1c2ccccc2nc2ccccc12" : what is it?
Completion: 3.91

Prompt: Would you kindly share the measured TGI for "Cc1ccc(NC2=CC(=O)C(=O)c3ccccc32)c(C)c1" ?
Completion: 14.5

Prompt: Request the reported TGI associated with "CCOc1cc(/C=C/C(=O)CC(=O)/C=C/c2ccc(OC(=O)CNCCN(CC)CC)c(OCC)c2)ccc1OC(=O)CNCCN(CC)CC"
Completion: 3.82

* * *

Measured TGI, listed per entry for reference.
Tested on: BT-549 breast
Experiment: NCI tumour cell line growth inhibition, 48 h

CN1CC[C@]23c4c5ccc(O)c4OC2c2[nH]ncc2C[C@H]3[C@H]1C5 (stereo partly drawn)
> 100 µM

Prompt: Reported TGI, compound "Clc1ccc(Cn2cc(/C=N/n3cnnc3)c3ccccc32)cc1" : ____
Completion: > 100 µM

* * *

System: SF-539 CNS
Assay: NCI tumour cell line growth inhibition, 48 h; in the data active = GI50 below about 0.43 µM; inactive = the rest
Allowed answers: active, inactive

The following molecules have reported results that may help.
O=C1C2C(C(=O)N1CC[Se][Se]CCN1C(=O)C3C(C1=O)[C@H]1C=C[C@@H]3C1)[C@H]1C=C[C@@H]2C1 (stereo not given in full)
active
CCN(CC)CCS(=O)(=O)CCNc1ccnc2cc(Cl)ccc12
inactive
O=C(Nc1nc2c(s1)CCc1c-2c(Br)n(Cc2ccccc2)c1Br)c1ccccc1
inactive
C=CC[PH+](c1ccccc1)c1ccccc1.C=CC[PH+](c1ccccc1)c1ccccc1.[Pt+2].[S-]c1ncccn1.[S-]c1ncccn1
inactive
CCOc1cc(/C=C/C(=O)CC(=O)/C=C/c2ccc(OC(=O)CNCCN(CC)CC)c(OCC)c2)ccc1OC(=O)CNCCN(CC)CC
inactive
CCOC(=O)c1cc2cc(OCc3ccccc3)ccc2[nH]1
inactive

Prompt: Outcome logged for "O=C(/C=C/c1cccc(Oc2ccc(Cl)cc2)c1)c1ccccc1" in this assay:
Completion: inactive

Prompt: Which outcome was entered for the molecule "Cc1cc(-c2ccco2)cc(C)c1/C=C/c1cncc(-c2nn[nH]n2)c1" in this test?
Completion: inactive

Prompt: Please share the test call associated with "CCN(CC)C(=O)CCCCCn1c2ccccc2c2c3c(c4c5ccccc5[nH]c4c21)C(=O)N(O)C3=O" .
Completion: inactive

Prompt: Field: outcome | Entry: "CCc1ccc(C2=NN(c3ccc(S(C)(=O)=O)cc3)C(=O)CC2)cc1"
Completion: inactive

* * *

Listed here are compounds together with their documented TGI.
Test system: M14 melanoma
Assay: NCI tumour cell line growth inhibition, 48 h
Report as a plain number; the unit µM is understood.

Would you please look over these solved cases?
CC/C(=C(/c1ccc(/C=C/C(=O)O)cc1)c1ccc2[nH]ncc2c1)c1ccc(F)cc1Cl
27.1
FC(F)(F)c1cnc(N/N=C(/c2ccccc2)c2ccccn2)c(Cl)c1
15.7
CCN(CC)Cc1ccc(Nc2c3ccccc3nc3ccccc23)cc1
3.15

Turning now to a further record.
Prompt: Checklist item: TGI tested on M14 melanoma, entry "O=[N+]([O-])c1ccc(/C=C\c2ccc3c(c2)OCO3)c([N+](=O)[O-])c1" , value?
Completion: 31.1

* * *

Tested on: UO-31 renal
Test: NCI tumour cell line growth inhibition, 48 h
Threshold rule: TGI greater than or equal to 8 µM is True; below that, False.

O=C(O)Cn1ccc(=O)c2c([N+](=O)[O-])cccc21
True

Prompt: Check this compound for TGI at or above 8 µM: "O=C(Nc1nc2c(s1)CCc1c-2c(Br)n(Cc2ccccc2)c1Br)c1ccccc1"
Completion: True

Prompt: Check if TGI >= 8 µM (inclusive). Item: "COC(=O)C1=Nc2ccc(F)cc2/C1=C/c1sc(=S)[nH]c1O"
Completion: False

* * *

Entries and their TGI
Test system: LOX IMVI melanoma
Assay: NCI tumour cell line growth inhibition, 48 h

Examples with answers:
COc1ccc2c(C(=O)c3c(C)n(CCN4CCOCC4)c4ccccc34)cccc2c1
45.4 µM
COC(=O)c1ccc2c(c1)C(=O)c1c-2n(CCCCl)c(=O)c2cc(OC)c(OC)cc12
> 100 µM
N/C(=N\N=C/c1cc([N+](=O)[O-])cc([N+](=O)[O-])c1O)NO
> 100 µM
COCCOCCOCCC(=O)NC1CC2CCC1(C)C2(C)C (centres undefined)
> 100 µM
CN1CC[C@]23c4c5ccc(O)c4OC2c2[nH]ncc2C[C@H]3[C@H]1C5 (some centres undefined)
> 100 µM

Prompt: Need TGI, item "COc1cc(S(=O)(=O)Nc2ccc(-c3csc(/N=C\c4cccs4)n3)cc2)ccc1Cl"
Completion: > 100 µM

Prompt: I would be grateful if you could share the reported TGI for "Cc1ccc(C=C(C(=O)O)C(=O)O)o1" .
Completion: > 100 µM

Prompt: Form field: reported TGI of "CC(=O)O[C@H]1C[C@H]2[C@@H]([C@H](OC(C)=O)C[C@@H]3CC4(CC[C@@]32C)OOC2(CCCCC2)OO4)[C@@H]2CC[C@H]([C@H](C)CCC(=O)O)[C@@]12C"
Completion: 15.8 µM

* * *

System: SF-539 CNS
Assay: NCI tumour cell line growth inhibition, 48 h
Entry flag: yes (1) if TGI reaches 10 µM; no (0) if it does not.

Known results for compounds:
Cn1cc(NC(=O)c2cc(NC(=O)CCCCCCCC(=O)Nc3cc(C(=O)Nc4cc(C(=O)NCCC(=N)N)n(C)c4)n(C)c3)cn2C)cc1C(=O)NCCC(=N)N
yes (1)
O=C(Nc1ccc(Cl)c(C(F)(F)F)c1)C(=O)c1c(O)c2ccccc2oc1=O
yes (1)
COc1cccc(/C=N/[N-]C(N)=O)c1[O-].[OH3+].[Pd+2]
yes (1)
Nc1ncc(Sc2ccccc2C(=O)O)s1
yes (1)
CC1(C)N=C(N)N=C(N)N1c1ccc(OCCCCNC(=O)Nc2cccc(S(=O)(=O)F)c2)c(Cl)c1
no (0)
Cc1nn2c(-c3nc4cc(Cl)c(Cl)cc4[nH]3)c(-c3ccc(F)cc3)nc2s1
yes (1)

Prompt: Hi, just wondering whether "CN1CCOCCOCCOc2ccccc2NC(=O)c2nc(cnc2N)-c2ccc(cc2)S1(=O)=O" shows TGI of 10 µM or higher.
Completion: yes (1)

Prompt: Check if TGI >= 10 µM (inclusive). Item: "CCN(CC)C(=S)SSCCO"
Completion: yes (1)

Prompt: Quick check: does "COC(=O)C1=Nc2ccc(F)cc2/C1=C/c1sc(=S)[nH]c1O" have TGI greater than or equal to 10 µM?
Completion: no (0)

* * *

System: OVCAR-8 ovarian
Experiment: NCI tumour cell line growth inhibition, 48 h
test_readout: TGI

O=c1[nH]c(=O)n(C2CC(O)C(O)C(CO)O2)cc1F (stereo not drawn)
> 100 µM
C=C(C)[C@@H]1CC[C@]2(C(=O)n3ccnc3)CC[C@]3(C)[C@H](CC[C@@H]4[C@@]5(C)CCCNC(C)(C)[C@@H]5CC[C@]43C)[C@@H]12
3.88 µM
Cc1cc(OC(=O)c2c(C)cc(OC(=O)c3c(C)cc(O)cc3O)cc2O)cc(O)c1C(=O)O
> 100 µM
CC(C)C/C(=N\NC(=O)c1ccncc1)c1cc(Cl)ccc1O
> 49.2 µM
O[C@]12c3ccccc3C1CCCCC2N1CCOCC1 (stereo partly drawn)
> 100 µM
O=C(/C=C/c1cccc(Oc2ccc(Cl)cc2)c1)c1ccccc1
66.9 µM

Prompt: State the recorded TGI for this entry: "Clc1ccc(Cn2cc(/C=N/n3cnnc3)c3ccccc32)cc1"
Completion: > 100 µM

Prompt: What value of TGI has been recorded for this entry: "CC1(C)CC(O)CC(C)(C)N1.CC1(C)CC(O)CC(C)(C)N1.CC1(C)CC(O)CC(C)(C)N1.CC1(C)CC(O)CC(C)(C)N1.Cl.[Ti]"
Completion: > 100 µM

Prompt: Which TGI value is on record for "Nc1ccn([C@@H]2S[C@H](CO)[C@@H](O)[C@@H]2F)c(=O)n1" ?
Completion: > 100 µM

Prompt: Consider the compound shown here: "COC(=O)C1=Nc2ccc(F)cc2/C1=C/c1sc(=S)[nH]c1O" What is its recorded TGI?
Completion: 37.7 µM

Prompt: I'd like to know its TGI. The compound in question is CCN1C(=O)N2C(OC)c3ccccc3C(Br)C2(OC)C1=O (stereo not drawn)
Completion: > 100 µM

Prompt: I am curious: what TGI value has been reported for COc1cccc2c1[C@H]1OC(=O)NC1CCCCC2 (stereo partly drawn) ?
Completion: > 100 µM

Prompt: If you can, please state the reported TGI value of O=C(Nc1ccc(Cl)c(Cl)c1)C1C(=O)N(c2ccc(Cl)c(Cl)c2)C(=O)/C1=N\O (stereo not drawn) .
Completion: > 100 µM
